Listed here are binders together with their documented REVEAL score at 0 h.
# ASSAYED TARGET: B*27:05 (human), P01889
# TEST PROTOCOL: ProImmune REVEAL MHC class I-peptide binding assay
Just the number, please.

Please review the following examples before continuing.
FKLTYQNKV (modifications not checked) | 53.7
RRGDLPVWL (modifications not checked) | 145
LMCHATFTM (modifications not checked) | 98.2

Turning now to a further binder:
If you can, please state the reported REVEAL score at 0 h value of ARGYISTRV (modifications not checked) . 125
